- Test system: eNOS promoter
- assay-notes: Activation of eNOS transcription (eNOS promoter-luciferase reporter gene assay)
- Format: cell-based, human
- run-conditions: maximum transcription induction ratio (luciferase with compound / solvent alone); 18 h incubation
assay-endpoint: TIR (max)

Query: Reported TIR (max), compound Cc1cccc2c1CC(NC(=O)c1ccc(F)cc1)C2 (single isomer, unassigned; (+)) : ____
Response: 3.00

Query: Here is the next compound: Cc1cc(C)c(C(=O)NC2Cc3ccccc3C2)c(N)n1
Response: 2.5

Query: Here is the next compound: CS(=O)(=O)Nc1cccc(C(=O)NC2Cc3ccccc3C2)c1
Response: 2.4

Query: Here is the next compound: O=C(NC1Cc2cccc(C=CC(=O)N3CCOCC3)c2C1)c1ccc(F)cc1 (stereo not shown)
Response: 2.5

----------
Provide the recorded melting point for the entries that follow.
Write down the numeric answer in °C and omit the unit.

Query: Reported melting point, compound CC(O)c1ccc2c(c1)CC(NC(=O)c1ccc(F)cc1)C2 (stereo not drawn) : ____
Response: 135

Query: Here is the next compound: O=C(NC1Cc2ccc(O)cc2C1)c1ccc(F)cc1 (stereo not drawn)
Response: 199

Query: Here is the next compound: O=C(NC1Cc2ccccc2C1)c1ccc2c(c1)OC(F)(F)O2
Response: 147.5

Query: Here is the next compound: O=C(NC1Cc2ccccc2C1)c1ccc(OCc2ccccc2)cc1 [Compound 40, 4-BENZYLOXY-N-INDAN-2-YL-BENZAMIDE]
Response: 158.5

Query: Here is the next compound: COc1cc2c(cc1OC)CC(NC(=O)c1ccc(F)cc1)C2
Response: 160

Query: Here is the next compound: O=C(NC1Cc2cccc(-c3ccc(F)cc3)c2C1)c1ccc(F)cc1 (stereo not drawn) [Compound 398B]
Response: 157

Query: Here is the next compound: CC(=O)c1ccc2c(c1)CC(NC(=O)c1ccc(F)cc1)C2 (stereo not drawn)
Response: 148

Query: Here is the next compound: O=C(NC1Cc2ccc(-c3ccc(F)cc3)cc2C1)c1ccc(F)cc1 (stereo not drawn) [Compound 398A]
Response: 193

Query: Here is the next compound: O=C(NC1Cc2ccc([N+](=O)[O-])cc2C1)c1ccc(F)cc1 (stereo not drawn)
Response: 167

----------
Provide the recorded pEC50 for the entries that follow.
- Tested on: eNOS promoter
- assay-notes: Activation of eNOS transcription (eNOS promoter-luciferase reporter gene assay)
- Type: cell-based, human
- run-conditions: Homo sapiens, Endothelial cell, 18 h, EC50 of transcription induction ratio, determined graphically; human endothelial cell line, 18 h incubation; read-out: EC-50
In textbook form, pEC50 equals minus log to base ten of the concentration in mol/L.

Query: Reported pEC50, compound O=C(NC1Cc2ccccc2C1)c1cccc(C(=O)c2ccccc2)c1 [Compound 287, 3-BENZOYL-N-INDAN-2-YL-BENZAMIDE] : ____
Response: 4.89

Query: Here is the next compound: O=C(C=Cc1cccc2c1CC(NC(=O)c1ccc(F)cc1)C2)Nc1ccc(Cl)cc1 (centres unmarked)
Response: 5.07

Query: Here is the next compound: O=C(NC1Cc2cccc(I)c2C1)c1ccc(F)cc1 (centres unmarked) [Compound 408, 4-FLUORO-N-(4-IODO-INDAN-2-YL)-BENZAMIDE]
Response: 4.96

Query: Here is the next compound: CC1=C(C(=O)NC2Cc3ccccc3C2)Cc2ccccc21
Response: 4.89

Query: Here is the next compound: Cc1ccc(C(=O)Nc2cccc(C(=O)NC3Cc4ccccc4C3)c2)cc1
Response: 4.92

Query: Here is the next compound: O=C(NC1Cc2ccccc2C1)c1ccc(C(=O)C(F)(F)F)cc1
Response: 4.96

Query: Here is the next compound: Cc1nc(C)c(C(=O)NC2Cc3ccccc3C2)s1
Response: 4.89

Query: Here is the next compound: O=C(NC1Cc2ccccc2C1)c1cc(F)c(Cl)cc1F
Response: 4.89

----------
Provide the recorded pEC50 for the entries that follow.
- Tested on: eNOS promoter
- assay-notes: Activation of eNOS transcription (eNOS promoter-luciferase reporter gene assay)
- Assay type: cell-based, human
- run-conditions: Homo sapiens, Endothelial cell, 18 h, EC50 of transcription induction ratio, determined graphically; human endothelial cell line, 18 h incubation; read-out: EC-50
In textbook form, pEC50 equals minus log to base ten of the concentration in mol/L.

Query: Reported pEC50, compound O=C(NC1Cc2ccccc2C1)c1ccc(Cl)c(Cl)c1 [Compound 314, 3,4-DICHLORO-N-INDAN-2-YL-BENZAMIDE] : ____
Response: 4.92

Query: Here is the next compound: CS(=O)(=O)c1csc(C(=O)NC2Cc3ccccc3C2)c1Cl
Response: 5.02

Query: Here is the next compound: O=C(NC1Cc2ccccc2C1)c1cccc(-c2cccnc2)c1 [Compound 432, N-INDAN-2-YL-3-PYRIDIN-3-YL-BENZAMIDE]
Response: 5.02

Query: Here is the next compound: O=C(NC1Cc2ccc(O)cc2C1)c1ccc(F)cc1 (centres unmarked)
Response: 4.92

Query: Here is the next compound: O=C(NC1Cc2ccccc2C1)c1ccc(F)c(F)c1F [Compound 320, 2,3,4-TRIFLUORO-N-INDAN-2-YL-BENZAMIDE]
Response: 4.92

----------
Provide the recorded maximal fold induction for the entries that follow.
- System: eNOS promoter
- assay-notes: Activation of eNOS transcription (eNOS promoter-luciferase reporter gene assay)
- Type: cell-based, human
- run-conditions: Homo sapiens, 18 h, maximum transcription induction ratio (luciferase with compound / solvent alone); 18 h incubation; read-out: TIR (max)

Query: Write down the reported maximal fold induction of Nc1nccnc1C(=O)NC1Cc2ccccc2C1 [Compound 185] , test system: eNOS promoter.
Response: 2.4

Query: Here is the next molecule: O=C(NC1Cc2ccccc2C1)c1ccc(Cl)cc1Br [Compound 331, 2-BROMO-4-CHLORO-N-INDAN-2-YL-BENZAMIDE]
Response: 2.8

Query: Here is the next molecule: CC(C)C(=O)Nc1cccc(C(=O)NC2Cc3ccccc3C2)c1 [Compound 372, N-INDAN-2-YL-3-ISOBUTYRYLAMINO-BENZAMIDE]
Response: 2.7

Query: Here is the next molecule: COc1c(Br)cccc1C(=O)NC1Cc2ccccc2C1 [Compound 253, 3-BROMO-N-INDAN-2-YL-2-METHOXY-BENZAMIDE]
Response: 2.2

Query: Here is the next molecule: O=C(NC1Cc2ccccc2C1)c1cc(F)c(Cl)cc1F [Compound 263]
Response: 2.5

Query: Here is the next molecule: O=C(NC1Cc2ccccc2C1)c1cccc(-c2cccnc2)c1 [Compound 432, N-INDAN-2-YL-3-PYRIDIN-3-YL-BENZAMIDE]
Response: 2.5

Query: Here is the next molecule: Cc1ccc(F)cc1C(=O)NC1Cc2ccccc2C1 [Compound 248, 5-FLUORO-N-INDAN-2-YL-2-METHYL-BENZAMIDE]
Response: 2.8

Query: Here is the next molecule: CCCCOc1ccc(C(=O)NC2Cc3ccccc3C2)cc1 [Compound 30, 4-BUTOXY-N-INDAN-2-YL-BENZAMIDE]
Response: 2.94

Query: Here is the next molecule: O=C(NC1Cc2ccccc2C1)c1ccc(SC(F)(F)F)cc1 [Compound 246]
Response: 2.5

Query: Here is the next molecule: Cc1c(Cl)cccc1C(=O)NC1Cc2ccccc2C1 [Compound 257, 3-CHLORO-N-INDAN-2-YL-2-METHYL-BENZAMIDE]
Response: 2.7

Query: Here is the next molecule: CCOc1ccc(C(=O)NC2Cc3ccccc3C2)c(OC(C)=O)c1 [Compound 6]
Response: 2.55

Query: Here is the next molecule: O=C(NC1Cc2ccccc2C1)c1cccc(C(=O)c2ccccc2)c1 [Compound 287, 3-BENZOYL-N-INDAN-2-YL-BENZAMIDE]
Response: 2.9

Query: Here is the next molecule: Cc1cccc(C(=O)NC2Cc3ccccc3C2)c1F [Compound 249, 2-FLUORO-N-INDAN-2-YL-3-METHYL-BENZAMIDE]
Response: 2.5

Query: Here is the next molecule: O=C(NC1Cc2ccccc2C1)c1cccc(F)c1 [Compound 24, 3-FLUORO-N-INDAN-2-YL-BENZAMIDE]
Response: 2.88

Query: Here is the next molecule: CC(C)S(=O)(=O)c1csc(C(=O)NC2Cc3ccccc3C2)c1Cl [Compound 265]
Response: 2.7

Query: Here is the next molecule: O=C(NC1Cc2ccccc2C1)c1cccc(Br)c1 [Compound 382, 3-BROMO-N-INDAN-2-YL-BENZAMIDE]
Response: 2.5

Query: Here is the next molecule: CS(=O)(=O)c1ccc(C(=O)NC2Cc3ccccc3C2)c(Cl)c1 [Compound 312]
Response: 2.2

Query: Here is the next molecule: Cc1ccc(F)c(C(=O)NC2Cc3ccccc3C2)c1Cl [Compound 346]
Response: 2.6

Query: Here is the next molecule: O=C(NC1Cc2ccccc2C1)c1cccc2ccccc12 [Compound 294]
Response: 2.2

Query: Here is the next molecule: O=C(NC1Cc2ccccc2C1)c1ccc(Cl)nc1 [Compound 387, 6-CHLORO-N-INDAN-2-YL-NICOTINAMIDE]
Response: 2.6

Query: Here is the next molecule: CS(=O)(=O)c1csc(C(=O)NC2Cc3ccccc3C2)c1Cl [Compound 321]
Response: 2.5
